This collection of values is drawn from patent US9102648B1.

Target: GAL4 DBD-CfEcR(DEF)/VP16AD-MmRXRE (Choristoneura fumiferana, UniProt O77240)
Assay: 13B3 Assay (CHO stable cell line, luciferase reporter)
Details: 3.3 uM ligand; RLU ligand treated / RLU DMSO treated cells; average of two wells
Procedure: GAL4 DBD-CfEcR(DEF)/VP16AD-MmRXRE: […] Luciferase reporter gene expression was measured 48 h after cell treatment using Bright-Glo™ Luciferase Assay System from Promega (E2650). Luminescence was detected at room temperature using a Dynex MLX microtiter plate luminometer. Each assay was conducted in two separate wells, and the two values were averaged. Fold inductions were calculated by dividing relative light units (“RLU”) in ligand treated cells with RLU in DMSO treated cells. […]
# reported Fold Induction, 13B3 Assay, 3.3 uM; entries follow
measure: Fold Induction, 13B3 Assay, 3.3 uM

- compound: "Cc1ccc([N+](=O)[O-])c(C(=O)N(NC(=O)c2ccc3c(c2C)CCCO3)C(C)(C)C)c1"
  recorded_value: 1363
- compound: "Cc1cc(C(=O)N(NC(=O)c2cccc(Cl)c2C)C(C)(C)C)ccc1Br"
  recorded_value: 1
- compound: "Cc1cc(C)cc(C(=O)N(NC(=O)c2ccc3c(c2)OC(C)O3)C(C)(C)C)c1 (stereo not shown)"
  recorded_value: 1912
- compound: "CCc1c(C(=O)NN(C(=O)c2cc(Cl)nc(Cl)c2)C(C)(C)C)ccc2c1OCCO2"
  recorded_value: 1364
- compound: "CCc1c(OC)cccc1C(=O)NN(C(=O)c1cc(OC)c(C)c(OC)c1)C(C)(C)C#N"
  recorded_value: 930
- compound: "Cc1ccc(F)c(C(=O)N(NC(=O)c2ccc3c(c2C)CCCO3)C(C)(C)C)c1"
  recorded_value: 1182
- compound: "Cc1cc(C)cc(C(=O)N(NC(=O)c2cccc(OC(F)(F)F)c2C)C(C)(C)C)c1"
  recorded_value: 4180
